experiment: qHTS assay to identify small molecule agonists of H2AX (AID 1224845)
protocolConditions: CHO-K1 phospho-H2AX Ser139 HTRF, 3 h; series mostly up to 154 µM
Records with an inconclusive call do not appear. Calls of active or inactive are those of the source. The call rests on the fitted dose curve; in most records, active means well fitted activation curve with a large enough effect in the signal ratio in the repeat runs (not every such curve was filed as active); inconclusive means weak or mixed curves; inactive means flat fitted curve, though single readings scatter; the % refers to the signal ratio.
The reply should be one of these categories: label 1 for active, label 0 for inactive

Query: recorded result category for CCCC1O[C@@H]2C[C@H]3[C@@H]4CCC5=CC(=O)C=C[C@]5(C)[C@H]4[C@@H](O)C[C@]3(C)[C@]2(C(=O)CO)O1 (stereo partly specified) in this test
label 0

Could you kindly confirm the outcome this assay logged for "CN(C)c1ccc(SC#N)cc1" ?
label 0

Would you mind telling me which call this test gave "O=c1[nH]cnc2nc[nH]c12" ?
label 0

GET /call?item= "CCOc1ccc2nc3cc(N)ccc3c(N)c2c1" returns the recorded outcome of this test.
label 0

// outcome(item) with item = "O=C(O)c1c(Cl)cccc1Cl"
label 0

Given "CCOC(=O)/C=C(C)/C=C/C=C(C)/C=C/c1c(C)cc(OC)c(C)c1C" , state the outcome it received in this test.
label 0

Outcome? "CCCCCOC(=O)CCCC"
label 0

Please state the recorded outcome for this compound: "O=C(O)c1ccc(Cl)c(Cl)c1"
label 0

Hey, what did the test say about CCCCC(CC)COC(=O)c1ccccc1C(=O)O (stereo unspecified) ?
label 0

// return assay outcome for "CC[C@@]1(O)C(=O)OCc2c1cc1n(c2=O)Cc2cc3c(CN(C)C)c(O)ccc3nc2-1"
label 1

Please let me know the test result on file for "O=c1cccccc1O" .
label 1

# fetch the recorded call for "CC(=O)SC[C@@H](Cc1ccccc1)C(=O)NCC(=O)OCc1ccccc1" here
label 0

I'd appreciate the recorded outcome for "Cc1cc(CCN2CCN(c3nsc4ccccc34)CC2)cc2c1NC(=O)CC2(C)C" from this test.
label 0

So what was the verdict on "CCN(Cc1cccnc1)C(=O)c1cccc(Cl)c1[C@]1(C)C(=O)N(Cc2ccc(OC)cc2OC)c2ccc(Cl)cc21" in this test?
label 0

// outcome(item) with item = "CN(C)CCCOC1(Cc2ccccc2)CCCCCC1"
label 0

For this compound, state the assay outcome: "Cc1cc(O)c(C(C)(C)C)cc1C(C)(C)C"
label 1

What is the recorded call for this compound in the test? "O=C(Nc1cccc(Cl)c1)OCC#CCCl"
label 1

Call for entry "Cc1c(C)c2c(c(C)c1OC(=O)CCC(=O)O)CC[C@@](C)(CCC[C@H](C)CCC[C@H](C)CCCC(C)C)O2" :
label 0

Record lookup: outcome of this test for "Cc1cccc2c1cc1ccc3cccc4ccc2c1c34" ?
label 0

// return assay outcome for "CCCCCCCCCCCCCCCCCC[N+](C)(C)Cc1ccccc1"
label 0

Query: recorded result category for "CCCCCCCCCCCCCCCCCC[N+](C)(C)C" in this test
label 0
